In this section, each of the compounds is paired with its reported Percent Inhibition of Plaque Numbers (Compared to Virus Controls).
- System: human cytomegalovirus (HCMV), strain AD-169
- test: Antiviral test (plaque reduction) versus HCMV, strain AD-169, in MRC-5 cells
- Format: cell-based
- condition.info: 1.0 μg/ml; Example 2
measure: Percent Inhibition of Plaque Numbers (Compared to Virus Controls) (%)

>>> numeric_readout("Cc1cc(O)c2c(c1)C(C1c3cc(C)cc(O)c3C(=O)c3c(O)cc(O)cc31)c1cc(O)cc(O)c1C2=O (centres unmarked) [Emodin Bianthrone (mixed), emodin bianthrone]")
100
>>> numeric_readout("Cc1cc(O)c2c(c1)C(C1c3cc(C)cc(O)c3C(=O)c3c(O)cc(O)cc31)c1cc(O)cc(O)c1C2=O (centres unmarked) [Emodin Bianthrone (d,1), emodin bianthrone]")
33
>>> numeric_readout("O=C(O)c1cc(O)c2c(c1)[C@H]([C@H]1c3cc(C(=O)O)cc(O)c3C(=O)c3c(O[C@@H]4O[C@H](CO)[C@@H](O)[C@H](O)[C@H]4O)cccc31)c1cccc(O[C@@H]3O[C@H](CO)[C@@H](O)[C@H](O)[C@H]3O)c1C2=O [(+)Sennoside A, sennoside A]")
0
>>> numeric_readout("O=C(O)c1cc(O)c2c(c1)[C@@H]([C@H]1c3cc(C(=O)O)cc(O)c3C(=O)c3c(O[C@@H]4O[C@H](CO)[C@@H](O)[C@H](O)[C@H]4O)cccc31)c1cccc(O[C@@H]3O[C@H](CO)[C@@H](O)[C@H](O)[C@H]3O)c1C2=O [Meso Sennoside B, sennoside B]")
0
>>> numeric_readout("Cc1cc(O)c2c(c1)C(C1c3cc(C)cc(O)c3C(=O)c3c(O)cc(O)cc31)c1cc(O)cc(O)c1C2=O (stereo not drawn) [Emodin Bianthrone (meso), emodin bianthrone]")
32
